Entry source: patent US20260193295A1

System: Streptococcus pyrogens
Assay type: cell-based
Method: MIC assay were conducted using the protocol recommended by the Clinical and Laboratory Standards Institute.(37) Culture conditions (temperature, medium) are detailed in Table 3. All compounds were dissolved in sterile DMSO (ATCC, USA) to give a concentration of 6.4 mg/mL. Vancomycin hydrochloride was used as positive controls. Tested compounds were serially diluted across 96-well plates using a 2-fold serial dilution in a volume of 50 μL. […]
Positions of bridges follow the written chain, without caps; N, C: chain ends. Non-standard residues stand in square brackets, D forms with d. Residues, ends and D or L forms follow the SMILES beside them. *: point of attachment. Hexanoyl(6-Ph) = O=C(CCCCCc1ccccc1)*; dDab = NCC[C@@H](N)C(=O)O; Dab = NCC[C@H](N)C(=O)O
measurementType: MIC (µg/mL)
# number only, unit µg/mL dropped from output

Query: Name the reported MIC value associated with the molecule CC(C)[C@@H]1NC(=O)[C@H](Cc2ccc(O)cc2)NC(=O)CNC(=O)[C@@H](CC(=O)O)NC(=O)[C@@H](CC(N)=O)NC(=O)CNC(=O)[C@H](CC(=O)O)NC(=O)[C@@H](CCN)NC(=O)[C@@H](NC(=O)[C@@H](CO)NC(=O)CCCCCc2ccccc2)[C@@H](C)OC(=O)[C@H](Cc2ccccc2)NC(=O)[C@H](CCN)NC1=O [Cilagicin L3] ({Hexanoyl(6-Ph)}-[dS]T[dDab]DG[dN][dD]GYV[Dab]F; ester 2-C)
Result: 1

====

Provide the reported MIC of each item.
Tested on: Streptococcus pneumoniae
Format: cell-based
Positions of bridges follow the written chain, without caps; N, C: chain ends. Non-standard residues stand in square brackets, D forms with d. Residues, ends and D or L forms follow the SMILES beside them. *: point of attachment. Benzoyl(4-Ph) = O=C(c1ccc(-c2ccccc2)cc1)*; Hexanoyl(6-Ph) = O=C(CCCCCc1ccccc1)*; Myristoyl = CCCCCCCCCCCCCC(=O)*; X1 = CC[C@H](C)CCCCC(=O)*; dDab = NCC[C@@H](N)C(=O)O; Dab = NCC[C@H](N)C(=O)O
Please give a number only; it is taken to be in µg/mL.

Query: Query (compound): CC(C)[C@@H]1NC(=O)[C@H](Cc2ccc(O)cc2)NC(=O)CNC(=O)[C@@H](CC(=O)O)NC(=O)[C@@H](CC(N)=O)NC(=O)CNC(=O)[C@H](CC(=O)O)NC(=O)[C@@H](CCN)NC(=O)[C@@H](NC(=O)[C@@H](CO)NC(=O)c2ccc(-c3ccccc3)cc2)[C@@H](C)OC(=O)[C@H](Cc2ccccc2)NC(=O)[C@H](CCN)NC1=O [Cilagicin BP] ({Benzoyl(4-Ph)}-[dS]T[dDab]DG[dN][dD]GYV[Dab]F; ester 2-C) ; field requested: MIC
Result: 4

Query: Quick one: MIC for CC[C@H](C)CCCCC(=O)N[C@H](CO)C(=O)N[C@@H]1C(=O)N[C@H](CCN)C(=O)N[C@@H](CC(=O)O)C(=O)NCC(=O)N[C@H](CC(N)=O)C(=O)N[C@H](CC(=O)O)C(=O)NCC(=O)N[C@@H](Cc2ccc(O)cc2)C(=O)N[C@@H](C(C)C)C(=O)N[C@@H](CCN)C(=O)N[C@@H](Cc2ccccc2)C(=O)O[C@@H]1C [Cilagicin L5] (X1-[dS]T[dDab]DG[dN][dD]GYV[Dab]F; ester 2-C) ?
Result: 4

Query: Recorded MIC of CCCCCCCCCCCCCC(=O)N[C@H](CO)C(=O)N[C@@H]1C(=O)N[C@H](CCN)C(=O)N[C@@H](CC(=O)O)C(=O)NCC(=O)N[C@H](CC(N)=O)C(=O)N[C@H](CC(=O)O)C(=O)NCC(=O)N[C@@H](Cc2ccc(O)cc2)C(=O)N[C@@H](C(C)C)C(=O)N[C@@H](CCN)C(=O)N[C@@H](Cc2ccccc2)C(=O)O[C@@H]1C [Cilagicin] (Myristoyl-[dS]T[dDab]DG[dN][dD]GYV[Dab]F; ester 2-C) , please.
Result: 0.25

Query: Quick check: MIC of CC(C)[C@@H]1NC(=O)[C@H](Cc2ccc(O)cc2)NC(=O)CNC(=O)[C@@H](CC(=O)O)NC(=O)[C@@H](CC(N)=O)NC(=O)CNC(=O)[C@H](CC(=O)O)NC(=O)[C@@H](CCN)NC(=O)[C@@H](NC(=O)[C@@H](CO)NC(=O)CCCCCc2ccccc2)[C@@H](C)OC(=O)[C@H](Cc2ccccc2)NC(=O)[C@H](CCN)NC1=O [Cilagicin L3] ({Hexanoyl(6-Ph)}-[dS]T[dDab]DG[dN][dD]GYV[Dab]F; ester 2-C) ?
Result: 4

====

Tested on: Streptococcus pneumoniae
Format: cell-based
Positions of bridges follow the written chain, without caps; N, C: chain ends. Non-standard residues stand in square brackets, D forms with d. Residues, ends and D or L forms follow the SMILES beside them. *: point of attachment. X3 = Cc1ccccc1/C=C/C(=O)*; dDab = NCC[C@@H](N)C(=O)O; Dab = NCC[C@H](N)C(=O)O
measurementType: MIC
Give the figure together with its unit, number first.

Query: Fill in: MIC of Cc1ccccc1/C=C/C(=O)N[C@H](CO)C(=O)N[C@@H]1C(=O)N[C@H](CCN)C(=O)N[C@@H](CC(=O)O)C(=O)NCC(=O)N[C@H](CC(N)=O)C(=O)N[C@H](CC(=O)O)C(=O)NCC(=O)N[C@@H](Cc2ccc(O)cc2)C(=O)N[C@@H](C(C)C)C(=O)N[C@@H](CCN)C(=O)N[C@@H](Cc2ccccc2)C(=O)O[C@@H]1C [Cilagicin L6] (X3-[dS]T[dDab]DG[dN][dD]GYV[Dab]F; ester 2-C) is ___
Result: 32 µg/mL

====

System: Streptococcus pyrogens
Assay type: cell-based
Positions of bridges follow the written chain, without caps; N, C: chain ends. Non-standard residues stand in square brackets, D forms with d. Residues, ends and D or L forms follow the SMILES beside them. *: point of attachment. Benzoyl(4-Ph) = O=C(c1ccc(-c2ccccc2)cc1)*; Myristoyl = CCCCCCCCCCCCCC(=O)*; X1 = CC[C@H](C)CCCCC(=O)*; X3 = Cc1ccccc1/C=C/C(=O)*; dDab = NCC[C@@H](N)C(=O)O; Dab = NCC[C@H](N)C(=O)O
Give measured MIC for each item. Keep answers brief.

Query: // returns reported MIC for input CCCCCCCCCCCCCC(=O)N[C@H](CO)C(=O)N[C@@H]1C(=O)N[C@H](CCN)C(=O)N[C@@H](CC(=O)O)C(=O)NCC(=O)N[C@H](CC(N)=O)C(=O)N[C@H](CC(=O)O)C(=O)NCC(=O)N[C@@H](Cc2ccc(O)cc2)C(=O)N[C@@H](C(C)C)C(=O)N[C@@H](CCN)C(=O)N[C@@H](Cc2ccccc2)C(=O)O[C@@H]1C [Cilagicin] (Myristoyl-[dS]T[dDab]DG[dN][dD]GYV[Dab]F; ester 2-C)
Result: 0.125 mg/L

Query: # input compound: CC(C)[C@@H]1NC(=O)[C@H](Cc2ccc(O)cc2)NC(=O)CNC(=O)[C@@H](CC(=O)O)NC(=O)[C@@H](CC(N)=O)NC(=O)CNC(=O)[C@H](CC(=O)O)NC(=O)[C@@H](CCN)NC(=O)[C@@H](NC(=O)[C@@H](CO)NC(=O)c2ccc(-c3ccccc3)cc2)[C@@H](C)OC(=O)[C@H](Cc2ccccc2)NC(=O)[C@H](CCN)NC1=O [Cilagicin BP] ({Benzoyl(4-Ph)}-[dS]T[dDab]DG[dN][dD]GYV[Dab]F; ester 2-C) ; wanted: its MIC
Result: 1 mg/L

Query: MIC for Cc1ccccc1/C=C/C(=O)N[C@H](CO)C(=O)N[C@@H]1C(=O)N[C@H](CCN)C(=O)N[C@@H](CC(=O)O)C(=O)NCC(=O)N[C@H](CC(N)=O)C(=O)N[C@H](CC(=O)O)C(=O)NCC(=O)N[C@@H](Cc2ccc(O)cc2)C(=O)N[C@@H](C(C)C)C(=O)N[C@@H](CCN)C(=O)N[C@@H](Cc2ccccc2)C(=O)O[C@@H]1C [Cilagicin L6] (X3-[dS]T[dDab]DG[dN][dD]GYV[Dab]F; ester 2-C) ?
Result: 4 mg/L

Query: So what does the record say about MIC for CC[C@H](C)CCCCC(=O)N[C@H](CO)C(=O)N[C@@H]1C(=O)N[C@H](CCN)C(=O)N[C@@H](CC(=O)O)C(=O)NCC(=O)N[C@H](CC(N)=O)C(=O)N[C@H](CC(=O)O)C(=O)NCC(=O)N[C@@H](Cc2ccc(O)cc2)C(=O)N[C@@H](C(C)C)C(=O)N[C@@H](CCN)C(=O)N[C@@H](Cc2ccccc2)C(=O)O[C@@H]1C [Cilagicin L5] (X1-[dS]T[dDab]DG[dN][dD]GYV[Dab]F; ester 2-C) ?
Result: 1 mg/L
